tested on: 695427-040-R-J1-PDC complex spheroids, viability percent T/C; assay: Anticancer human tumor 695427-040-R-J1-PDC patient-derived colon adenocarcinoma cell line growth inhibition [GQUAD]; details: second compound 10 µM; first compound 0.00999 µM; hits give low values;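 also: spheroids exposed to compounds for seven days before readout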
Could you mark each record yes if its viability, T/C falls strictly under 80%, and no if it equals or exceeds it?

[
  {
    "Molecule": "Cc1[nH]c2ccccc2c1CCNCc1ccc(/C=C/C(=O)NO)cc1 + Cc1[nH]c2ccc(F)cc2c1-c1nc2c3cccnc3c3ncccc3c2[nH]1",
    "Category Label": "yes"
  },
  {
    "Molecule": "CC[C@@]1(O)C(=O)OCc2c1cc1n(c2=O)Cc2cc3c(CN(C)C)c(O)ccc3nc2-1 + CN(C)c1ccc(Nc2c3ccc(NC(=O)CCN4CCCC4)cc3nc3cc(NC(=O)CCN4CCCC4)ccc23)cc1",
    "Category Label": "no"
  },
  {
    "Molecule": "CCc1c2c(nc3ccc(O)cc13)-c1cc3c(c(=O)n1C2)COC(=O)[C@]3(O)CC + CN(C)c1ccc(Nc2c3ccc(NC(=O)CCN4CCCC4)cc3nc3cc(NC(=O)CCN4CCCC4)ccc23)cc1",
    "Category Label": "yes"
  },
  {
    "Molecule": "Cn1ncnc1[C@H]1c2n[nH]c(=O)c3cc(F)cc(c23)N[C@@H]1c1ccc(F)cc1 + CN(C)c1ccc(Nc2c3ccc(NC(=O)CCN4CCCC4)cc3nc3cc(NC(=O)CCN4CCCC4)ccc23)cc1",
    "Category Label": "yes"
  },
  {
    "Molecule": "CCc1c2c(nc3ccc(O)cc13)-c1cc3c(c(=O)n1C2)COC(=O)[C@]3(O)CC + Cc1cnc(CNC(=O)c2c(=O)c3ccc(N4CCCN(C)CC4)nc3n3c2sc2ccccc23)cn1",
    "Category Label": "yes"
  },
  {
    "Molecule": "Cc1[nH]c2ccccc2c1CCNCc1ccc(/C=C/C(=O)NO)cc1 + CN(C)c1ccc(Nc2c3ccc(NC(=O)CCN4CCCC4)cc3nc3cc(NC(=O)CCN4CCCC4)ccc23)cc1",
    "Category Label": "no"
  },
  {
    "Molecule": "Cn1ncnc1[C@H]1c2n[nH]c(=O)c3cc(F)cc(c23)N[C@@H]1c1ccc(F)cc1 + Cc1[nH]c2ccc(F)cc2c1-c1nc2c3cccnc3c3ncccc3c2[nH]1",
    "Category Label": "no"
  },
  {
    "Molecule": "Cc1[nH]c2ccccc2c1CCNCc1ccc(/C=C/C(=O)NO)cc1 + Cc1cnc(CNC(=O)c2c(=O)c3ccc(N4CCCN(C)CC4)nc3n3c2sc2ccccc23)cn1",
    "Category Label": "yes"
  },
  {
    "Molecule": "CC[C@@]1(O)C(=O)OCc2c1cc1n(c2=O)Cc2cc3c(CN(C)C)c(O)ccc3nc2-1 + Cc1cnc(CNC(=O)c2c(=O)c3ccc(N4CCCN(C)CC4)nc3n3c2sc2ccccc23)cn1",
    "Category Label": "yes"
  },
  {
    "Molecule": "CCc1c2c(nc3ccc(O)cc13)-c1cc3c(c(=O)n1C2)COC(=O)[C@]3(O)CC + Cc1[nH]c2ccc(F)cc2c1-c1nc2c3cccnc3c3ncccc3c2[nH]1",
    "Category Label": "yes"
  }
]

Exercise: Does this molecule meet the criterion viability, T/C < 80%? CC[C@@]1(O)C(=O)OCc2c1cc1n(c2=O)Cc2cc3c(CN(C)C)c(O)ccc3nc2-1 + Cc1[nH]c2ccc(F)cc2c1-c1nc2c3cccnc3c3ncccc3c2[nH]1
Key: no

Exercise: API: query returns whether the molecule falls strictly under 80% in viability, T/C. Query: Cn1ncnc1[C@H]1c2n[nH]c(=O)c3cc(F)cc(c23)N[C@@H]1c1ccc(F)cc1 + Cc1cnc(CNC(=O)c2c(=O)c3ccc(N4CCCN(C)CC4)nc3n3c2sc2ccccc23)cn1
Key: yes
